# Test system: NCI-H322M
# Protocol details: Cytotoxicity against human NCI-H322M cells
# Format: functional
# Setup conditions: read-out: Log LC50 (the source's name) (converted)
Assay readout: CC50 (µM)
Numbers only, in µM.

The following molecules each have a reported value; give each one's CC50.
1. CC(=O)O[C@@H]1C[C@H]2[C@]3(C)CC[C@H]4C(C)(C)CCC[C@]4(C)[C@H]3C[C@H](O)[C@]2(C)[C@@H](C=O)[C@@H]1C(C)=O
2. CC(=O)C1=CC[C@H]2[C@]3(C)CC[C@H]4C(C)(C)CCC[C@]4(C(=O)O)[C@H]3CC(=O)[C@]2(C)[C@H]1C=O
3. CC(=O)O[C@H]1C[C@H]2[C@@](C)(CC[C@H]3C(C)(C)CCC[C@@]32CO)[C@@H]2CC=C(C(C)=O)[C@H](C=O)[C@@]12C

1. 8.71
2. 42.7
3. 7.59

====

# Tested on: 786-0
# Protocol details: Cytotoxicity against human 786-0 cells
# Format: functional
# Setup conditions: read-out: Log TGI (converted)
Please go through the items and note down their TGI.

[[record]]
compound = "CC(=O)O[C@H]1C[C@H]2[C@@](C)(CC[C@H]3C(C)(C)CCC[C@@]32CO)[C@@H]2CC=C(C(C)=O)[C@H](C=O)[C@@]12C"
observed = "490 nM"


The following compounds each have a reported value; give each one's TGI.
1. CC(=O)C1=CC[C@H]2[C@]3(C)CC[C@H]4C(C)(C)CCC[C@]4(C(=O)O)[C@H]3CC(=O)[C@]2(C)[C@H]1C=O
2. CC(=O)O[C@@H]1C[C@H]2[C@]3(C)CC[C@H]4C(C)(C)CCC[C@]4(C)[C@H]3C[C@H](O)[C@]2(C)[C@@H](C=O)[C@@H]1C(C)=O

1. 1910 nM
2. 1620 nM

Entry CC1OC(=O)[C@H]2[C@H]1[C@@H](O)C[C@H]1[C@]3(C)CC[C@H]4C(C)(C)CCC[C@]4(C)[C@H]3C[C@@H](O)[C@]21C (some centres undefined) : reported TGI = ?
30200 nM

====

# Test system: SK-MEL-5
# Protocol details: Cytotoxicity against human SK-MEL-5 cells
# Format: functional
Please go through the items and note down their GI50.
Numbers only, in µM.

Before answering, review these 3 worked examples.
[[record]]
molecule = "CC1OC(=O)[C@H]2[C@H]1[C@@H](O)C[C@H]1[C@]3(C)CC[C@H]4C(C)(C)CCC[C@]4(C)[C@H]3C[C@@H](O)[C@]21C (some centres undefined)"
system_tested = "SK-MEL-5"
assay_readout = "GI50"
observed = 13.5

[[record]]
molecule = "CC(=O)O[C@H]1C[C@H]2[C@@](C)(CC[C@H]3C(C)(C)CCC[C@@]32CO)[C@@H]2CC=C(C(C)=O)[C@H](C=O)[C@@]12C"
system_tested = "SK-MEL-5"
assay_readout = "GI50"
observed = 0.501

[[record]]
molecule = "CC(=O)O[C@@H]1C[C@H]2[C@]3(C)CC[C@H]4C(C)(C)CCC[C@]4(C)[C@H]3C[C@H](O)[C@]2(C)[C@@H](C=O)[C@@H]1C(C)=O [SCALARHERBACIN A]"
system_tested = "SK-MEL-5"
assay_readout = "GI50"
observed = 1.29


Now consider the entry below.
Item `CC(=O)C1=CC[C@H]2[C@]3(C)CC[C@H]4C(C)(C)CCC[C@]4(C(=O)O)[C@H]3CC(=O)[C@]2(C)[C@H]1C=O` with SK-MEL-5 - GI50?
1.45
